// data source = patent US9540357B1

Target: UniProt:P43116
Assay: Competition binding ([3H]PGE2), EP2
Conditions: HEK 293 cells stably expressing human EP2 receptors, [3H]PGE2 10 nM
Procedure: Competition binding experiments were performed in a medium containing Hank's balanced salt solution, HEPES 20 mM, pH 7.3, membranes (˜60 μg protein) or 2×10^5 cells from HEK 293 cells stably expressing human EP2 receptors, [^3H]PGE2 (10 nM) and various concentrations of test compounds in a total volume of 300 μl. Reaction mixtures were incubated at 23° C. for 60 min, and were filtered over Whatman GF/B filters under vacuum. […]

molecule | EP2 Ki
Cc1cc(F)ccc1-c1cccc(C(O)/C=C/[C@H]2CCC(=O)N2CCCc2ccc(C(=O)O)cc2)c1 (stereo partly drawn) [Example 12] | > 10 µM
Cc1ccccc1-c1cccc(C(O)/C=C/[C@H]2CCC(=O)N2CCCc2ccc(C(=O)O)cc2)c1 (single isomer, unassigned) [Example 7] | > 10 µM
O=C(O)c1ccc(CCCN2C(=O)CC[C@@H]2/C=C/C(O)c2cccc(-c3ccc(Cl)cc3C(F)(F)F)c2)cc1 (single isomer, unassigned) [Example 17] | > 10 µM

====

Target: EP2 (Homo sapiens (Human))
Sequence (P43116 whole entry): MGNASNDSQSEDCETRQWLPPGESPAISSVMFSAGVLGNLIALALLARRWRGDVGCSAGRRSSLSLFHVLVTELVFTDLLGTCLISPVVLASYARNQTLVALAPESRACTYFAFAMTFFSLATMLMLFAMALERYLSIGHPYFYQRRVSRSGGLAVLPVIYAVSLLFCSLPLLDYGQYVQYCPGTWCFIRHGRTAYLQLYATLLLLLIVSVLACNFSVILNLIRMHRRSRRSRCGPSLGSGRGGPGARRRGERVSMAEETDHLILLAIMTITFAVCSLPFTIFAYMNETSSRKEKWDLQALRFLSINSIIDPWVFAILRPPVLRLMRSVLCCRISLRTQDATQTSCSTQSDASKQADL
Assay: cAMP assay, EP2
Settings: HEK-EBNA cells expressing EP2

molecule | EC50 (µM)
O=C(O)c1ccc(CCCN2C(=O)CC[C@@H]2/C=C/C(O)c2cccc(Br)c2)cc1 (single isomer, unassigned) [Example 2] | 0.149

====

The next entries give measured Ki for EP4 (Homo sapiens (Human), UniProt P35408).

molecule | target.of.assay | Ki [nM]
Cc1cc(Cl)ccc1-c1ccc(C(O)/C=C/[C@H]2CCC(=O)N2CCCc2ccc(C(=O)O)cc2)s1 (stereo partly shown) [Example 33] | EP4 (Homo sapiens (Human), UniProt P35408) | 536
O=C(O)c1ccc(CCCN2C(=O)CC[C@@H]2/C=C/C(O)c2cccc(-c3ccc(Cl)cc3C(F)(F)F)c2)cc1 (single isomer, unassigned) [Example 16] | EP4 (Homo sapiens (Human), UniProt P35408) | 332
Cc1cc(F)ccc1-c1cccc(C(O)/C=C/[C@H]2CCC(=O)N2CCCc2ccc(C(=O)O)cc2)c1 (stereo partly shown) | EP4 (Homo sapiens (Human), UniProt P35408) | 53
Cc1cc(Cl)ccc1-c1cccc(C(O)/C=C/[C@H]2CCC(=O)N2CCCc2ccc(C(=O)O)cc2)c1 (stereo partly shown) | EP4 (Homo sapiens (Human), UniProt P35408) | 23

====

The next entries give measured Ki for EP4 (Homo sapiens (Human)).
measured.quantity: Ki (nM)

compound | readout.value
Cc1cc(Cl)ccc1-c1ccc(C(O)/C=C/[C@H]2CCC(=O)N2CCCc2ccc(C(=O)O)cc2)s1 (stereo partly shown) [Example 32] | 4830
O=C(O)c1ccc(CCCN2C(=O)CC[C@@H]2/C=C/C(O)c2cccc(-c3ccc(Cl)cc3C(F)(F)F)c2)cc1 (single isomer, unassigned) [Example 17] | 11
Cc1cc(Cl)ccc1-c1cc(F)cc(C(O)/C=C/[C@H]2CCC(=O)N2CCCc2ccc(C(=O)O)cc2)c1 (single isomer, unassigned) [Example 35] | 352
Cc1cc(O)ccc1-c1cccc(C(O)/C=C/[C@H]2CCC(=O)N2CCCc2ccc(C(=O)O)cc2)c1 (single isomer, unassigned) | 3320
O=C(O)c1ccc(CCCN2C(=O)CC[C@@H]2/C=C/C(O)c2ccccc2)cc1 (single isomer, unassigned) | 4970
CCCCc1cc(Cl)ccc1-c1cccc(C(O)/C=C/[C@H]2CCC(=O)N2CCCc2ccc(C(=O)O)cc2)c1 (stereo partly shown) | 319
O=C(O)c1ccc(CCCN2C(=O)CC[C@@H]2/C=C/C(O)c2cccc(Br)c2)cc1 (single isomer, unassigned) | 2040
O=C(O)c1ccc(CCCN2C(=O)CC[C@@H]2/C=C/C(O)c2cccc(-c3ccc(Cl)cc3CO)c2)cc1 (stereo partly shown) | 658
Cc1cc(Cl)ccc1-c1cc(F)cc(C(O)/C=C/[C@H]2CCC(=O)N2CCCc2ccc(C(=O)O)cc2)c1 (single isomer, unassigned) [Example 34] | 4340
CC(C)c1cc(O)ccc1-c1cccc(C(O)/C=C/[C@H]2CCC(=O)N2CCCc2ccc(C(=O)O)cc2)c1 (stereo partly shown) [Example 31] | 211
O=C(O)c1ccc(CCCN2C(=O)CC[C@@H]2/C=C/C(O)c2cccc(-c3ccccc3)c2)cc1 (single isomer, unassigned) | 6710
Cc1cc(Cl)cc(C)c1-c1cccc(C(O)/C=C/[C@H]2CCC(=O)N2CCCc2ccc(C(=O)O)cc2)c1 (single isomer, unassigned) | 60
CC(C)c1cc(O)ccc1-c1cccc(C(O)/C=C/[C@H]2CCC(=O)N2CCCc2ccc(C(=O)O)cc2)c1 (stereo partly shown) [Example 30] | 582

====

The next entries give measured pKi for EP2 (Homo sapiens (Human), UniProt P43116).
pKi: −log10 of the molar value.

compound | pKi
O=C(O)c1ccc(CCCN2C(=O)CC[C@@H]2/C=C/C(O)c2cccc(Br)c2)cc1 (single isomer, unassigned) | 5.13
Cc1cc(Cl)ccc1-c1cccc(C(O)/C=C/[C@H]2CCC(=O)N2CCCc2ccc(C(=O)O)cc2)c1 (some centres unmarked) | 5.36

====

Target: EP4 (Homo sapiens (Human))
Sequence (P35408 whole entry): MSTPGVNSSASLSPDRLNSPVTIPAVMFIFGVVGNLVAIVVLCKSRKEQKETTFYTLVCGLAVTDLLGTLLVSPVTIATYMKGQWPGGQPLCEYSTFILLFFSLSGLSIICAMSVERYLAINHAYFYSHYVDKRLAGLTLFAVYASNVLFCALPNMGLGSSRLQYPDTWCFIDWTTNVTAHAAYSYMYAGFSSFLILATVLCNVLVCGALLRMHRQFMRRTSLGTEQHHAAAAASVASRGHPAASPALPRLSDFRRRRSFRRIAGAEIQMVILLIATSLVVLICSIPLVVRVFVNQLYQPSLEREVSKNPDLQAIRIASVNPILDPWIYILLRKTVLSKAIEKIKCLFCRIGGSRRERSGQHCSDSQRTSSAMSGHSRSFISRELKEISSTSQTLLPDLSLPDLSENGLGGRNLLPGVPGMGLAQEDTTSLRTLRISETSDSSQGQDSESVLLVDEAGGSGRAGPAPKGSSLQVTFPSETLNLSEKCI
Assay: cAMP assay, EP4
Conditions: HEK-EBNA cells expressing EP4
Entries whose EC50 is below 40 nM take satisfied; entries at or above 40 nM take not satisfied.

compound | class.label
Cc1c(-c2cccc(C(O)/C=C/[C@H]3CCC(=O)N3CCCc3ccc(C(=O)O)cc3)c2)ccc(Cl)c1Cl (single isomer, unassigned) [Example 23] | satisfied
CCCCc1cc(Cl)ccc1-c1cccc(C(O)/C=C/[C@H]2CCC(=O)N2CCCc2ccc(C(=O)O)cc2)c1 (some centres unmarked) | not satisfied
Cc1cc(Cl)ccc1-c1cccc(C(O)/C=C/[C@H]2CCC(=O)N2CCCc2ccc(C(=O)O)cc2)c1 (some centres unmarked) | satisfied
Cc1cc(O)ccc1-c1cccc(C(O)/C=C/[C@H]2CCC(=O)N2CCCc2ccc(C(=O)O)cc2)c1 (single isomer, unassigned) [Example 10] | satisfied
O=C(O)c1ccc(CCCN2C(=O)CC[C@@H]2/C=C/C(O)c2ccccc2)cc1 (single isomer, unassigned) [Example 4] | not satisfied
CCc1cc(Cl)ccc1-c1cccc(C(O)/C=C/[C@H]2CCC(=O)N2CCCc2ccc(C(=O)O)cc2)c1 (single isomer, unassigned) [Example 15] | satisfied
Cc1cc(Cl)ccc1-c1ccc(C(O)/C=C/[C@H]2CCC(=O)N2CCCc2ccc(C(=O)O)cc2)s1 (some centres unmarked) | not satisfied
CC(C)(C)c1cc(Cl)ccc1-c1cccc(C(O)/C=C/[C@H]2CCC(=O)N2CCCc2ccc(C(=O)O)cc2)c1 (some centres unmarked) | not satisfied
O=C(O)c1ccc(CCCN2C(=O)CC[C@@H]2/C=C/C(O)c2cccc(-c3ccc(Cl)cc3C(F)(F)F)c2)cc1 (single isomer, unassigned) [Example 16] | not satisfied
CCc1cc(Cl)ccc1-c1cccc(C(O)/C=C/[C@H]2CCC(=O)N2CCCc2ccc(C(=O)O)cc2)c1 (single isomer, unassigned) [Example 14] | satisfied
Cc1cc(Cl)ccc1-c1cc(F)cc(C(O)/C=C/[C@H]2CCC(=O)N2CCCc2ccc(C(=O)O)cc2)c1 (single isomer, unassigned) | not satisfied
Cc1c(-c2cccc(C(O)/C=C/[C@H]3CCC(=O)N3CCCc3ccc(C(=O)O)cc3)c2)ccc(Cl)c1Cl (single isomer, unassigned) [Example 22] | satisfied
CC(C)c1cc(O)ccc1-c1cccc(C(O)/C=C/[C@H]2CCC(=O)N2CCCc2ccc(C(=O)O)cc2)c1 (some centres unmarked) [Example 30] | not satisfied
Cc1cc(Cl)ccc1-c1cc(C(O)/C=C/[C@H]2CCC(=O)N2CCCc2ccc(C(=O)O)cc2)ccc1F (single isomer, unassigned) | not satisfied
CCCc1cc(Cl)ccc1-c1cccc(C(O)/C=C/[C@H]2CCC(=O)N2CCCc2ccc(C(=O)O)cc2)c1 (single isomer, unassigned) [Example 24] | not satisfied
CC(C)c1cc(O)ccc1-c1cccc(C(O)/C=C/[C@H]2CCC(=O)N2CCCc2ccc(C(=O)O)cc2)c1 (some centres unmarked) [Example 31] | not satisfied
Cc1cc(F)ccc1-c1cccc(C(O)/C=C/[C@H]2CCC(=O)N2CCCc2ccc(C(=O)O)cc2)c1 (some centres unmarked) | satisfied
Cc1cc(Cl)cc(C)c1-c1cccc(C(O)/C=C/[C@H]2CCC(=O)N2CCCc2ccc(C(=O)O)cc2)c1 (single isomer, unassigned) [Example 20] | not satisfied
O=C(O)c1ccc(CCCN2C(=O)CC[C@@H]2/C=C/C(O)c2ccccc2)cc1 (single isomer, unassigned) [Example 3] | not satisfied
Cc1cc(O)ccc1-c1cccc(C(O)/C=C/[C@H]2CCC(=O)N2CCCc2ccc(C(=O)O)cc2)c1 (single isomer, unassigned) [Example 9] | not satisfied
O=C(O)c1ccc(CCCN2C(=O)CC[C@@H]2/C=C/C(O)c2cccc(Br)c2)cc1 (single isomer, unassigned) | not satisfied
O=C(O)c1ccc(CCCN2C(=O)CC[C@@H]2/C=C/C(O)c2cccc(-c3ccc(Cl)cc3C(F)(F)F)c2)cc1 (single isomer, unassigned) [Example 17] | satisfied
Cc1ccccc1-c1cccc(C(O)/C=C/[C@H]2CCC(=O)N2CCCc2ccc(C(=O)O)cc2)c1 (single isomer, unassigned) [Example 8] | satisfied
Cc1cc(Cl)cc(C)c1-c1cccc(C(O)/C=C/[C@H]2CCC(=O)N2CCCc2ccc(C(=O)O)cc2)c1 (single isomer, unassigned) [Example 21] | satisfied
CCCc1cc(Cl)ccc1-c1cccc(C(O)/C=C/[C@H]2CCC(=O)N2CCCc2ccc(C(=O)O)cc2)c1 (single isomer, unassigned) [Example 25] | not satisfied
Cc1ccccc1-c1cccc(C(O)/C=C/[C@H]2CCC(=O)N2CCCc2ccc(C(=O)O)cc2)c1 (single isomer, unassigned) [Example 7] | satisfied
